src = patent US20240116985A1

pIC50 for assorted binders
ASSAYED SYSTEM: T1, full-length beta-Catenin (Uniprot ID P35222) (Homo sapiens (Human), UniProt P35222 1-781)
T1 construct: also called bCat; B-Catenin
T1 sequence: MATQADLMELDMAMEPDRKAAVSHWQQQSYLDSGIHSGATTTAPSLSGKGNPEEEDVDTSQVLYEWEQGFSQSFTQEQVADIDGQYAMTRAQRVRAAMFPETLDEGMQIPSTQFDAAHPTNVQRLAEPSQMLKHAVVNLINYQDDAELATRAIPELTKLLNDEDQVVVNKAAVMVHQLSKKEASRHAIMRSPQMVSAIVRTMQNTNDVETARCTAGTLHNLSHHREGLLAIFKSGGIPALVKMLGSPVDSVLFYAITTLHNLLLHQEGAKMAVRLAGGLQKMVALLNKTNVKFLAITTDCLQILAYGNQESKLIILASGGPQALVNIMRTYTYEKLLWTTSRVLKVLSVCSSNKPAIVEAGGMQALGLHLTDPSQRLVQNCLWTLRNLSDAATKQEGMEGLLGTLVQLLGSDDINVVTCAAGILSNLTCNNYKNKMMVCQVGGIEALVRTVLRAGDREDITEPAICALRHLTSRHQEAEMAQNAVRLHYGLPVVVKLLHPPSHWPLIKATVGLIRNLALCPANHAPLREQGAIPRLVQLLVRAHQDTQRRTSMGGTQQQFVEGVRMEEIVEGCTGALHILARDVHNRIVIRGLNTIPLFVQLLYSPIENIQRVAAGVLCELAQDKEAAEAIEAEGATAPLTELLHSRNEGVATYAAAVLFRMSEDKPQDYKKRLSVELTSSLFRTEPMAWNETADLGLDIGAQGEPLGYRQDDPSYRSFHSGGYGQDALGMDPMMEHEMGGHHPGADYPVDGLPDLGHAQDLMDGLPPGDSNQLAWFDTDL
METHOD: fluorescence polarization competition vs 5FAM-TCF4(10-53) on full-length beta-catenin
Starred links: 1 amine or outer side, 2 acyl side, 3 side chain; linkers in the order of their positions; H or OH if unused. Positions of bridges follow the written chain, without caps; N, C: chain ends. Non-standard residues stand in square brackets, D forms with d. Primed or numbered codes have the meaning given here. B5(16) = 2-amino-2-(pent-4-en-1-yl)hept-6-enoic acid = 2,2-bis(4-pentenyl)glycine (stitching residue), C=CCCCC(CCCC=C)(N[*:1])C(=O)[*:2]; B5(4) = 2,2-bis(4-pentenyl)glycine = 2-amino-2-(pent-4-en-1-yl)hept-6-enoic acid (stitching residue), C=CCCCC(CCCC=C)(N[*:1])C(=O)[*:2]; B5(9) = 2-amino-2-(pent-4-en-1-yl)hept-6-enoic acid (2,2-bis(4-pentenyl)glycine), C=CCCCC(CCCC=C)(N[*:1])C(=O)[*:2]; WCHO = 1-formyl-L-tryptophan, O=Cn1cc(C[C@H](N[*:1])C(=O)[*:2])c2ccccc21; S(OMe) = O-methyl-L-serine, COC[C@H](N[*:1])C(=O)[*:2]; Phe(2-CONH2) = NC(=O)c1ccccc1C[C@H](N)C(=O)O; Ala(2-furyl) = N[C@@H](Cc1ccco1)C(=O)O; His(τ-Me) = Cn1cnc(C[C@H](N)C(=O)O)c1; Bta = N[C@@H](Cc1csc2ccccc12)C(=O)O; αAllylPro = C=CC[C@@]1(C(=O)O)CCCN1; S8 = C=CCCCCCC[C@](C)(N)C(=O)O
# reply with the number alone; pIC50 is -log10 of concentration in mol/L

BINDER | pIC50
Ac-[αAllylPro]DA[B5(4)]DDAAFS[S8]F[WCHO]S-NH2 (staple 1-4, 4-11, Stapled peptide composition; also called Ac-PL3-Asp-Ala-B5-Asp-Asp-Ala-Ala-Phe-Ser-S8-Phe-WCHO-Ser-NH2) [I-333] | 5.56

Recorded pIC50 (binder XAAXDDAAFVXFWQ (not fully specified; N-terminal Ac; PL3 at 1; B5 at 4; S8 at 11; C-terminal NH2; stapled PL3-B5 and B5-S8 (olefin metathesis), Stapled peptide composition; also called Ac-PL3-Ala-Ala-B5-Asp-Asp-Ala-Ala-Phe-Val-S8-Phe-Trp-Gln-NH2) [I-349] ): 5.30

The measured pIC50 associated with Ac-[αAllylPro]DA[B5(9)]DDAAFV[S8]Y[Bta]Q-NH2 (staple 1-4, 4-11, Stapled peptide composition; also called Ac-PL3-Asp-Ala-B5-Asp-Asp-Ala-Ala-Phe-Val-S8-Tyr-BztA-Gln-NH2) [I-341] reads 5.70

Short answer for XDAXDDAAFVXFXQ (not fully specified; N-terminal Ac; PL3 at 1; B5 at 4; S8 at 11; 4CBMF at 12; BztA at 13; C-terminal NH2; stapled PL3-B5 and B5-S8 (olefin metathesis), Stapled peptide composition; also called Ac-PL3-Asp-Ala-B5-Asp-Asp-Ala-Ala-Phe-Val-S8-4CBMF-BztA-Gln-NH2) [I-338] : pIC50 was 5.30

Data point: Ac-[αAllylPro]DA[B5(4)]DDAA[Ala(2-furyl)]V[S8]FWQ-NH2 (staple 1-4, 4-11; not fully specified; printed as Ac-PL3-Asp-Ala-B5-Asp-Asp-Ala-Ala-2FurA-Val-S8-Phe-Trp-Gln-NH2, Stapled peptide composition; also called Ac-PL3-Asp-Ala-B5-Asp-Asp-Ala-Ala-2FurA-Val-S8-Phe-Trp-Gln-NH2) [I-327] ; pIC50 = 5.33

The measured pIC50 associated with Ac-[αAllylPro]DA[B5(4)]DDAAFV[S8][Phe(2-CONH2)][Bta]Q-NH2 (staple 1-4, 4-11, Stapled peptide composition; also called Ac-PL3-Asp-Ala-B5-Asp-Asp-Ala-Ala-Phe-Val-S8-2CBMF-BztA-Gln-NH2) [I-336] reads 6.82

# pIC50 of Ac-[αAllylPro]DA[B5(4)]DDAA[His(τ-Me)]V[S8]FWQ-NH2 (staple 1-4, 4-11; not fully specified; printed as Ac-PL3-Asp-Ala-B5-Asp-Asp-Ala-Ala-1meH-Val-S8-Phe-Trp-Gln-NH2, Stapled peptide composition; also called Ac-PL3-Asp-Ala-B5-Asp-Asp-Ala-Ala-1meH-Val-S8-Phe-Trp-Gln-NH2) [I-329] = 5.30

Looking up Ac-[αAllylPro]DA[B5(4)]DDAA[His(τ-Me)]V[S8]FWQ-NH2 (staple 1-4, 4-11, Stapled peptide composition; also called Ac-PL3-Asp-Ala-B5-Asp-Asp-Ala-Ala-1meH-Val-S8-Phe-Trp-Gln-NH2) [I-330] , I found its pIC50 recorded as 5.30

The binder listed as Ac-[αAllylPro]D[S(OMe)][B5(9)]DDAAFV[S8]F[Bta]Q-NH2 (staple 1-4, 4-11, Stapled peptide composition; also called Ac-PL3-Asp-S(OMe)-B5-Asp-Asp-Ala-Ala-Phe-Val-S8-Phe-BztA-Gln-NH2) [I-345] has a reported pIC50 of 6.87

The binder listed as XDQXDDAAFVXFXQ (not fully specified; N-terminal Ac; PL3 at 1; B5 at 4; S8 at 11; BztA at 13; C-terminal NH2; stapled PL3-B5 and B5-S8 (olefin metathesis), Stapled peptide composition; also called Ac-PL3-Asp-Gln-B5-Asp-Asp-Ala-Ala-Phe-Val-S8-Phe-BztA-Gln-NH2) [I-346] shows pIC50 equal to 6.74

The binder listed as XDAXDDAAFVXFXQ (not fully specified; N-terminal Ac; PL3 at 1; B5 at 4; S8 at 11; 4CBMF at 12; BztA at 13; C-terminal NH2; stapled PL3-B5 and B5-S8 (olefin metathesis), Stapled peptide composition; also called Ac-PL3-Asp-Ala-B5-Asp-Asp-Ala-Ala-Phe-Val-S8-4CBMF-BztA-Gln-NH2) [I-337] shows pIC50 equal to 5.30

Field pIC50 (entry Ac-[αAllylPro]DA[B5(16)]DAAAFV[S8]FWQ-NH2 (staple 1-4, 4-11, Stapled peptide composition; also called Ac-PL3-Asp-Ala-B5-Asp-Ala-Ala-Ala-Phe-Val-S8-Phe-Trp-Gln-NH2) [I-352] ) reads 5.30

So for XAAXDDAAFVXFWQ (not fully specified; N-terminal Ac; PL3 at 1; B5 at 4; S8 at 11; C-terminal NH2; stapled PL3-B5 and B5-S8 (olefin metathesis), Stapled peptide composition; also called Ac-PL3-Ala-Ala-B5-Asp-Asp-Ala-Ala-Phe-Val-S8-Phe-Trp-Gln-NH2) [I-348] , the logged pIC50 turned out to be 5.30

pIC50 for Ac-[αAllylPro]DA[B5(4)]DDAA[Ala(2-furyl)]V[S8]FWQ-NH2 (staple 1-4, 4-11; not fully specified; printed as Ac-PL3-Asp-Ala-B5-Asp-Asp-Ala-Ala-2FurA-Val-S8-Phe-Trp-Gln-NH2, Stapled peptide composition; also called Ac-PL3-Asp-Ala-B5-Asp-Asp-Ala-Ala-2FurA-Val-S8-Phe-Trp-Gln-NH2) [I-328] is 5.72
